Data origin, for the record: patent US10189819B2

target: Factor IXa (Homo sapiens (Human), UniProt P00740); assay: Determination of inhibitory activity against Factor IXa (cleavage of fluorescent peptide CH3SO2-D-CHG-Gly-Arg-AFC); assay type: biochemical; conditions: read-out: hFIXa IC50
Sequence (P00740 227-461): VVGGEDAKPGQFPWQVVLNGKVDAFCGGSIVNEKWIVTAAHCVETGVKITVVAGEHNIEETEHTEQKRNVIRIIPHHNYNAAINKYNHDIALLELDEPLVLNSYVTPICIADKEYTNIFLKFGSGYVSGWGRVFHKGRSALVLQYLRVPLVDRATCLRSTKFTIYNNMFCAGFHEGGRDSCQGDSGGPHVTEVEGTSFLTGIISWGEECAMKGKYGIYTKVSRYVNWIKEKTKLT
Sequence (P00740 47-191 partner): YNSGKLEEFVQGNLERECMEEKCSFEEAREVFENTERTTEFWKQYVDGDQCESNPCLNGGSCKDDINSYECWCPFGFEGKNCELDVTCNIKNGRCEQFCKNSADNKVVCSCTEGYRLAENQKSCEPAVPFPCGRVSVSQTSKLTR
pIC50: −log10 of the molar value.
measured_parameter: pIC50

Example entries begin here.
{"compound": "Cc1cc2nc(C(CNC(=O)c3c(Cl)cc(-c4ccn5ncnc5c4)cc3Cl)c3ccccc3)[nH]c2cc1C (centres unmarked)", "experimental_result": 7.19}
{"compound": "Cc1cc2nc(C(CNC(=O)c3ccc(-n4cc(CCO)nn4)cc3Cl)c3ccccc3)[nH]c2cc1C (centres unmarked)", "experimental_result": 7.66}
{"compound": "Cc1cc2nc(C(CNC(=O)c3c(Cl)cc(-c4cncnc4)cc3Cl)c3ccccc3)[nH]c2cc1C (centres unmarked)", "experimental_result": 7.74}

[A] COc1cc2nc(C(CNC(=O)c3c(Cl)cc(-n4cnc(C)n4)cc3Cl)c3cccc(C(=O)O)c3)[nH]c2cc1Cl (centres unmarked)
[B] O=C(NC[C@@H](c1ccccc1)c1nc2c(Cl)ccc(Cl)c2c(=O)[nH]1)c1ccc(-n2cnnc2)cc1Cl
Exercise: Between A and B , which one shows the smaller pIC50 number? Pick one; state its label.
Solution: B
(B: 7.37, A: 8.82)

[A] Cc1ncn(-c2ccc(C(=O)NCC(c3ccc(C(F)(F)F)nc3)c3nc4cc(C)c(C)cc4[nH]3)c(Cl)c2)n1 (centres unmarked)
[B] Cc1ccc2c([C@H](CNC(=O)c3ccc(-n4cnnc4)cc3Cl)c3cccc(F)c3)c[nH]c2c1
Exercise: Compare A and B and name the one whose reported pIC50 is smaller. Reply briefly: the label of your chosen item.
Solution: A
(A: 6.37, B: 7.51)

[I] COc1cc2nc([C@@H](CNC(=O)c3c(Cl)cc(-n4cnc(C)n4)cc3Cl)c3ccc(C(=O)N(C)C)cc3)[nH]c2cc1Cl
[II] CNC(=O)c1cccc([C@H](CNC(=O)c2c(Cl)cc(-n3cnc(C)n3)cc2Cl)c2nc3cc(OC)c(Cl)cc3[nH]2)c1
[III] Cc1cc2nc(C(CNC(=O)c3c(Cl)cc(-c4cnc(C5CC5)nc4)cc3Cl)c3ccccc3)[nH]c2cc1C (centres unmarked)
[IV] Cc1cc2nc(C(CNC(=O)c3c(Cl)cc(-c4cncc(C(C)(C)O)c4)cc3Cl)c3ccccc3)[nH]c2cc1C (centres unmarked)
Exercise: Put the items in order so that reported pIC50 rises from first to last. # respond with the labels, arranged in the requested order
Solution: III, IV, I, II
(III: 6.18, IV: 7.35, I: 7.56, II: 8.32)

[A] COc1cc2nc([C@@H](CNC(=O)c3c(Cl)cc(-n4cnc(C)n4)cc3Cl)c3cccc(C(=O)NC4CC4)c3)[nH]c2cc1Cl
[B] CCOC(=O)c1cc(-c2ccc(C(=O)NCC(c3ccccc3)c3nc4cc(C)c(C)cc4[nH]3)c(Cl)c2)ccn1 (centres unmarked)
[C] Cc1ccc(F)c2nc([C@@H](CNC(=O)c3ccc(-c4ccnnc4)cc3Cl)c3cccc(F)c3)[nH]c(=O)c12
Exercise: Would you mind ranking these compounds by ascending pIC50? Put the labels in the requested order and list them out.
Solution: B, C, A
(B: 6.61, C: 8.07, A: 8.54)
